Target: DEC205 (CD205, LY75), mouse, surface-expressed (Mus musculus, UniProt Q60767 Q60767:28-1723)
Sequence (Q60767 28-1723, one chain of several): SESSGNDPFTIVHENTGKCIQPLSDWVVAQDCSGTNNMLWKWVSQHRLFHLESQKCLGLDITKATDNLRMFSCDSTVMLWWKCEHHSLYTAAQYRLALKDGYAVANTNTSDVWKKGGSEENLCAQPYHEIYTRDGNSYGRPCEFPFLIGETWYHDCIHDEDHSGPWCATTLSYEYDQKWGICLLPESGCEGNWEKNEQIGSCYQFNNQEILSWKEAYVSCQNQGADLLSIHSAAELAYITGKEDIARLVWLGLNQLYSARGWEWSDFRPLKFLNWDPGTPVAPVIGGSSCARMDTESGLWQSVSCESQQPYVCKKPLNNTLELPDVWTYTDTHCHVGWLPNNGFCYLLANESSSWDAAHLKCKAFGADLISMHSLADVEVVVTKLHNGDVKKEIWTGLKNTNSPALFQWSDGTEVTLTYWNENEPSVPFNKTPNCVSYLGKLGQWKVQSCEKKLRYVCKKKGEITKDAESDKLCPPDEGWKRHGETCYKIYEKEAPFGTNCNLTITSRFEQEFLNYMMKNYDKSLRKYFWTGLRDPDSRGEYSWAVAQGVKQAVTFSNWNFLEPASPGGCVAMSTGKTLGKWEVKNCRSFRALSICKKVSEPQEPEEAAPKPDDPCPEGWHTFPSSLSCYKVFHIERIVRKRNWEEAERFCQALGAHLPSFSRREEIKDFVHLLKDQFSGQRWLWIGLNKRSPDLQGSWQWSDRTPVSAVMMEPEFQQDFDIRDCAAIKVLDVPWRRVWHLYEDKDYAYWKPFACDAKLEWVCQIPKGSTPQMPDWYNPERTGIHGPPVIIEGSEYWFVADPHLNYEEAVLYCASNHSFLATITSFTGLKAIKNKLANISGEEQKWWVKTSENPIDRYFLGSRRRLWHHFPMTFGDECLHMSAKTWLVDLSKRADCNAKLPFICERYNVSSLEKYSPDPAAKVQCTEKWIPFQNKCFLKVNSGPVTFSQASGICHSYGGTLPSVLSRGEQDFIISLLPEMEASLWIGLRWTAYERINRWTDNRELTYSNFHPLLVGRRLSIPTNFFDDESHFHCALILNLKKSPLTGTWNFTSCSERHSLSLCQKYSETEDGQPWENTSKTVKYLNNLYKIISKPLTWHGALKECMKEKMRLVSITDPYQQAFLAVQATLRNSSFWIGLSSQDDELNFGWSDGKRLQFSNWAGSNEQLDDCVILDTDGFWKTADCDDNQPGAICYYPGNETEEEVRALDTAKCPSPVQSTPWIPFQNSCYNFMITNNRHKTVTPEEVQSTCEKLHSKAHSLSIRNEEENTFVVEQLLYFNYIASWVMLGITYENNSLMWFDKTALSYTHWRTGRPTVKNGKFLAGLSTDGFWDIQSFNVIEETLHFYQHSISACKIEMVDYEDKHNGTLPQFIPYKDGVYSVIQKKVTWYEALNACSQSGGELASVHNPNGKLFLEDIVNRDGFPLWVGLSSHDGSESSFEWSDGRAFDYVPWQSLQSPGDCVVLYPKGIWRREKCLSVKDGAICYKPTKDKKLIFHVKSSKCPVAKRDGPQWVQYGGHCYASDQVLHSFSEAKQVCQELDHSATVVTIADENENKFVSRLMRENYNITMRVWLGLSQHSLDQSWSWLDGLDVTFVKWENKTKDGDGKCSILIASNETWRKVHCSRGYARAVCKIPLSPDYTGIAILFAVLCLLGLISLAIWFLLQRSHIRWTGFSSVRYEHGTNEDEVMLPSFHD
Assay: flow; apparent; A20.Kb/mDEC205 cells; RPMI + 1 mg/mL ssDNA, 37 C, 15 min; one-site fit
Details: tags: full-length, stably expressed on CHO (CHO/mDEC205) or A20.Kb/mDEC205 cells; label: Alexa Fluor 488 (5'); Mfold-predicted stem-loop with conserved UUCAUAA
Quantity measured: pKd
In simple prose, pKd is minus the logarithm base ten of a concentration in moles per litre.

In: Supply measured pKd of GGGAGGUGUGUUAGCACACGAUUCAUAAUCAGCUACCCUCCC (ssRNA, 2'-F pyrimidines; 3' idT; 5' thiol C6) [min.2] in your reply.
Out: 7.64
